FYI, the data here is from paper PMC4872110.

biological target: SsTsr3 (Saccharolobus solfataricus, UniProt Q9UWV6, T17D); assay: biochemical
Sequence (Q9UWV6 whole entry T17D): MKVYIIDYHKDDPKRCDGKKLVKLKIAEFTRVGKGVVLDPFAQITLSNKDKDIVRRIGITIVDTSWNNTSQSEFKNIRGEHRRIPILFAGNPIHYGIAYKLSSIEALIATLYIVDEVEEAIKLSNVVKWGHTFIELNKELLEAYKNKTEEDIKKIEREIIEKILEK
measured_endpoint: pKd
One number for each entry, as −log10 of the molar value.

[in] Recorded pKd for C[S+](CC[C@H](N)C(=O)O)C[C@H]1O[C@@H](n2cnc3c(N)ncnc32)[C@H](O)[C@@H]1O (stereo partly shown) , please?
[out] 1.95
